target: T1, human TMEM106B (human, UniProt Q9NUM4 2-274)
T1 construct: Full-length, on transiently transfected HEK293 cells, or natively expressed on HeLa, U251 and A549 cells; also called huTMEM106B; huTMEM
protocol_text: FACS, HEK293 transfectants;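 also: flow cytometry binding of hybridoma supernatants to HEK293 cells transiently expressing human, cyno or mouse TMEM106B, read as anti-mouse-APC median fluorescence, live cells only, 30 min on ice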

binder: anti-TMEM106B antibody TM-10 (antibody, V domains shown) VH: QVQLQQSGAELVKPGASVKISCKGSGYAFSSYWMNWVKQRPGKGLEWIGQIYPGDGDTNYNGKFKGKATLTADKSSTTAYIHLSSLTSEDSAVYFCARWGHYDEAMDDWGQGTSVTVSS VL: DVVMTQTPLSLPVSLGDQASISCRSSQSLVHSNGKTYLHWYVQKPGQSPKLLIYKISNRFSGVPDRFSGSGSGTDFTLKISRVEAEDLGVYFCSQITHVPWTFGGGTKLESK
fold-change over parental HEK293: 37.1 fold
//
binder: anti-TMEM106B antibody TM-8 (antibody, V domains shown, mouse IgG from hybridoma) VH: QIQLVQSGPELKKPGETVKISCKASGYTFTDYPMHWVKQAPGKGFKWMGVIYTDTGEPKYAEVFKGRFAFSLETSASTAYLQINNLKNEDTATYFCVRRLAYWGQGTLVTVSA VL: DIKMTQSPSSMYASLGERVTITCKASQDINSYLSWFQQKPGKSPKTLIFRANRLVDGVPSRFSGSGSGQDYSLTISSLEYEDMGIYYCLQYDEFPLTFGAGTKLEMK
fold-change over parental HEK293: 2.1 fold
//
binder: anti-TMEM106B antibody TM-29 (antibody, V domains shown) VH: QVQLRQSGAELVRPGASVKLSCKASGYTFTDYYINWVKQRPGQGLEWIARIYPGSGYTYYNEKFKGKATLTAEGSSNTAYMQLSSLTSEDSAVYFCANHYTNPFAYWGQGTLVTVSA VL: DIVMTQAAFSNPVTLGTSASISCRSSKSLLHYNGITYLYWYLQKPGQSPQLLIYQMSNLASGVPDRFSSSGSGTDFTLRISRVEAEDVGVYYCAQNLELPYTFGGGTKLEIK
fold-change over parental HEK293: 35.1 fold
//
binder: anti-TMEM106B antibody TM-12 (antibody, V domains shown) VH: EVQLQQSGAELMRPGASVKLSCTASGFNIQDYYMYWVKQRPEQGLEWIGRIDPEDGDAEYAPKFQGKATMTADTSSNTAYLQLSSLTSEDTAVYYCSTRVIYDGYYRTMDCWGQGTSVTVSS VL: DVLMTQIPLSLPVSLGDQASISCRSSQTIVHSNGNTYLEWYLKKPGQSPKLLIDKISNRFSGVPDRFSGSGSGTDFTLKISRVEAEDLGVYYCFQGSHVPYTFGGGTKLEIK
fold-change over parental HEK293: 25.9 fold
//
binder: anti-TMEM106B antibody TM-6 (antibody, V domains shown, mouse IgG from hybridoma) VH: QVQLQQSGAELVKPGASVKLSCKASGYTFTEYTIHWVKQRSGQGLEWIGWFYPGSTYIDYNEKFKDKATLTADKSSSTVYLELSRLTSEDSAVYFCARHEEDYSNWFPFWGQGTLVTVSA VL: DIQMSQSSSYLSVSLGGRVTITCKASDHINNWLAWYQQKPGNAPRLLISGATSLETGVPSRFSGSGSGKDYTLSITSLQTEDVATYYCQQYWSSPYTFGGGTKLEIK
fold-change over parental HEK293: 4.13 fold
//
binder: anti-TMEM106B antibody TM-18 (antibody, V domains shown) VH: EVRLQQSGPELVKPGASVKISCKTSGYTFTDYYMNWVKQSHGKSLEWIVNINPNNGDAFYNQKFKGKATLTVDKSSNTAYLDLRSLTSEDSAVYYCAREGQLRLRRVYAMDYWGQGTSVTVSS VL: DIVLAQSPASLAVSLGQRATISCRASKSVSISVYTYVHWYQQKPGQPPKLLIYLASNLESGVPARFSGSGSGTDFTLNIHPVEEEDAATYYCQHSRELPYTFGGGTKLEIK
fold-change over parental HEK293: 18.8 fold
//
binder: anti-TMEM106B antibody TM-48 (antibody, V domains shown) VH: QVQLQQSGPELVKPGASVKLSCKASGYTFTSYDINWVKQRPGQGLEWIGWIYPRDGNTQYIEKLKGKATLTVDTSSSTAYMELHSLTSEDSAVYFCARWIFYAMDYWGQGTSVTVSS VL: DVLMTQTPLSLPVSLGNQASISCRSSQSIVHGNGNTYLEWYLQKPGQSPKLLIYKVSNRFSGVPDRFSGSGSGTDFTLKISRVEAEDLGVYYCFQGSHLPYTFGGGTKLEIK
fold-change over parental HEK293: 16.7 fold
//
binder: anti-TMEM106B antibody TM-5 (antibody, V domains shown) VH: QVQLQQSGTELARPGASVKVSCKASGYIFTTYGITWVKQRGGQGLEWIGEIYPRSDNTYYNEKFKDKATLTADKSSSTAYMELRSLTSEDSAVYFCARSKGSGTGDYWGQGTTVTVSS VL: DIQMTQSPASLSASVGETVTITCRASENIYIYLAWYQQKQGKTPQLLVYNGKMLAENVPSRFSGSGSGTQFSLKINSLQPEDFGSYYCQHHYGSPPAFGAGTKLELK
fold-change over parental HEK293: 11.4 fold
//
binder: anti-TMEM106B antibody TM-21 (antibody, V domains shown) VH: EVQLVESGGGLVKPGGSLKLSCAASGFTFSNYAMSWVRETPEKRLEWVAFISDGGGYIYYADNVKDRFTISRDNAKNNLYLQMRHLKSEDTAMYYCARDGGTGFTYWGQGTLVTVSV VL: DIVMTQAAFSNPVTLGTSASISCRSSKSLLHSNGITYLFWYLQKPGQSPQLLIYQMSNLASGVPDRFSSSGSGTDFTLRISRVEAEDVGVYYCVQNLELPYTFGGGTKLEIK
fold-change over parental HEK293: 29.8 fold
//
binder: anti-TMEM106B antibody TM-52 (antibody, V domains shown, mouse IgG from hybridoma) VH: QVQLQQPGAELVKPGASVKLSCKASGYTFTNYWMHWVKQRPGQGLDWIGNIDPSDSETHYNQKFKDKATLTVDKVSSTAYMQLSSLTSEDSAVYYCARRGYYGRSPFAYWGQGTLVTVSA VL: ENVLTQSPAIMSASPGEKVTMTCSASSSVSYMHWYQQKSNTSPKLWIYDTSKLASGVPGRFSGSGSGNSYSLTISSAEAEDVATYYCFQGSGYPLTFGAGTKLELK
fold-change over parental HEK293: 17.3 fold
